Collected logP values appear next to each entry.
# Protocol Summary: Partition coefficient (logP) of the compound
# Format: physicochemical
Quantity: logP

INSERT INTO assay_data (substance_smiles, test_value) VALUES
  ('Nc1n[n+]([O-])c2ccccc2[n+]1[O-]', -0.342),
  ('OC[C@@H](O)[C@@H](O)[C@H](O)[C@H](O)CO', -2.62),
  ('O=c1c2ccccc2[nH]c2ccccc12', 2.98),
  ('Cc1ccc2c(c1)[n+]([O-])nc(N)[n+]2[O-]', 0.127),
  ('Cc1ccc2c(c1)[n+]([O-])c(N)n[n+]2[O-]', 0.068),
  ('Nc1n[n+]([O-])c2c(C(F)(F)F)cccc2[n+]1[O-]', 0.48),
  ('Nc1n[n+]([O-])c2cc(C(F)(F)F)ccc2[n+]1[O-]', 0.82);
